Below, each entry is listed alongside its reported CD8 T cell proliferation [% of control], Donor B, 1 nM antibody.
measured on: T1, cell-bound CD73 (human, UniProt P21589 27-549)
T1 sequence (looked up): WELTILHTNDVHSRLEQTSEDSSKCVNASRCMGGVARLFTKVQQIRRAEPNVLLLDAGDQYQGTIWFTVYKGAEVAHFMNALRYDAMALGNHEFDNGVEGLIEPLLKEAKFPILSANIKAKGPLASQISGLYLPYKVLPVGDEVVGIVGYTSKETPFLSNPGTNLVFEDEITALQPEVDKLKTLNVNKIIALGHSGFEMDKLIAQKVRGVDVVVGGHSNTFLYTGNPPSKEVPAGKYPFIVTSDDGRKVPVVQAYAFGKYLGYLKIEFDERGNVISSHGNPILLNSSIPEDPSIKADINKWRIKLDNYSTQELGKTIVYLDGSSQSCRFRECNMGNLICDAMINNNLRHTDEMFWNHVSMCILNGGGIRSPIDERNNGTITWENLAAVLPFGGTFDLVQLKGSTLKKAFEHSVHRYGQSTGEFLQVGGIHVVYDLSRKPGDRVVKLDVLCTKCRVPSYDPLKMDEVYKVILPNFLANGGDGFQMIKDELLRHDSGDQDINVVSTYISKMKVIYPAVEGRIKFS
assay remarks: cell-based or functional assay
Give your result in % as a bare value.

binder	assay result
C3 (antibody, human IgG1, kappa, L234A L235A, V domains shown, Humanized monoclonal antibody; also called anti-CD73 antibody C3) VH: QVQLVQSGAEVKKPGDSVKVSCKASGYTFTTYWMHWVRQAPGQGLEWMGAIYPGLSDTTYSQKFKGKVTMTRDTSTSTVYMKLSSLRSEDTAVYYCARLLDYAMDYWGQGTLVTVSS VL: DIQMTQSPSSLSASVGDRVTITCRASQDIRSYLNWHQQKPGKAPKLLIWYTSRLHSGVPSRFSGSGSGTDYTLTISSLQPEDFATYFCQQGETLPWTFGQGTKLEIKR	80.2
C5 (antibody, human IgG1, kappa, L234A L235A, V domains shown, Humanized monoclonal antibody; also called anti-CD73 antibody C5) VH: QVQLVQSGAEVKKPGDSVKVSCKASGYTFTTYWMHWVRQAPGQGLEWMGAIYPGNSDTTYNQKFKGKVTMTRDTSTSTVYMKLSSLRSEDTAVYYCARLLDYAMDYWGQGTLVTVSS VL: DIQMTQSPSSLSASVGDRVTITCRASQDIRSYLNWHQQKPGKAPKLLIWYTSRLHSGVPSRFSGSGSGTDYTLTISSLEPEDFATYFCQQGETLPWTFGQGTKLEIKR	80.3
C1 (antibody, human IgG1, kappa, L234A L235A, V domains shown, Humanized monoclonal antibody; also called anti-CD73 antibody C1) VH: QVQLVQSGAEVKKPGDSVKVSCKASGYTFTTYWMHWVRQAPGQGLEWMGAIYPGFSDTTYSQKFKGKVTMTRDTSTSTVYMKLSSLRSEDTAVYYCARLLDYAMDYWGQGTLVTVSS VL: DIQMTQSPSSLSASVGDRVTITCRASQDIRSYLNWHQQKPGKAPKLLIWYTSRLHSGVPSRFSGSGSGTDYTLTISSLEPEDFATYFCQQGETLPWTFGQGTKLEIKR	86.7

--- query ---
Prompt line: Entry C6 (antibody, human IgG1, kappa, L234A L235A, V domains shown, Humanized monoclonal antibody; also called anti-CD73 antibody C6) VH: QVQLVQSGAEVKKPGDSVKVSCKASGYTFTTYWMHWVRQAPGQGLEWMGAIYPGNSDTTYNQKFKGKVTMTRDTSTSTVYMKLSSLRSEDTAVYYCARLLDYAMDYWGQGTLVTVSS VL: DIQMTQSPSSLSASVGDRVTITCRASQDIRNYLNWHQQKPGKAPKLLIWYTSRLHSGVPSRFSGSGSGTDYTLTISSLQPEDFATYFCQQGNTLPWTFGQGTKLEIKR : reported CD8 T cell proliferation [% of control], Donor B, 1 nM antibody = ?
Response line: 65.4

This collection of values is drawn from patent US20190352420A1.
